compounds and their reported TGI
- Test system: SF-295 CNS
- methodSummary: NCI tumour cell line growth inhibition, 48 h
*1 amine or outer side, *2 acyl side, *3 side chain or, on linkers, in order; H or OH if unused. Where a SMILES comes first, the peptide text is derived from it. [ ]: non-standard residue; d: D form. ξ: configuration not given here. X21 = CC[C@@H](C)C(N[*:1])C(=O)[*:2]; ξR = N=C(N)NCCCC(N)C(=O)O; ξI = CCC(C)C(N)C(=O)O; ξL = CC(C)CC(N)C(=O)O; ξK = NCCCCC(N)C(=O)O; ξV = CC(C)C(N)C(=O)O; ξA = CC(N)C(=O)O

# compound, unitAbbreviation, limitQualifier, TGI
measured = [
    ("COC1=C(Br)C(=O)C2=C(C1=O)C1C3=C(C(=O)C=CC3=O)C2c2ccccc21 (stereo not given)", "µM", "=", 48.9),
    ("COc1ccc(OC)c2c(=S)c3ccccc3[nH]c12", "µM", ">", 100),
    ("COc1ccccc1NC(=O)O/N=C(/Cl)C(C)C", "µM", "=", 29.1),
    ("CCC(C)C1NC(=O)C(CC(C)C)NC(=O)C(C)NC(=O)C(C(C)C)NC(=O)C(CCCCN)NC(=O)C(CC(C)C)NC(=O)C(C(C)C)NC(=O)[C@H](C)NC(=O)C(C(C)CC)NC(=O)C(CCCN=C(N)N)NC(=O)C(CCCCN)NC(=O)C(CCCN=C(N)N)NC(=O)C(CCCCN)NC(=O)C([C@H](C)CC)NC(=O)C(CCCCN)NC1=O (stereo not given in full) (cyclo(A[ξV][ξL][ξK][ξV][ξA][ξL][ξI][ξK][X21][ξK][ξR][ξK][ξR][ξI]))", "µM", "=", 2.52),
    ("Cc1cc(=O)oc2cc(OS(C)(=O)=O)ccc12", "µM", ">", 100),
    ("NNC(=O)/C(NC(=O)c1ccccc1)=C(\\N)c1ccc(Cl)cc1", "µM", ">", 100),
    ("N#C/C(=C\\c1ccc(Br)cc1)n1nnc2ccccc21", "µM", "=", 8.9),
    ("CS(=O)(=O)OCCCOS(C)(=O)=O", "µM", ">", 100),
    ("CCOC(=O)/C(=C\\c1ccc[nH]1)C(=O)c1ccccc1", "µM", ">", 100),
    ("CCN(CC)CCCC(C)NC(=O)c1ccc2c(c1)C(=O)c1ccccc1C2=O (stereo not given)", "µM", "=", 45.8),
    ("COc1ccc2c(c1)/C(=N/OC(C)=O)c1c-2c(=O)[nH]c2ccccc12", "µM", "=", 48),
    ("CCCCCCCCCCCCCCCCCCOCC(COP(=O)([O-])OCC[N+](C)(C)C)OC (stereo not given)", "µM", "=", 29.7),
    ("CC(=O)/C=C/c1ccc(C)cc1", "µM", ">", 100),
    ("Cn1c(=O)c2c(nc(Nc3ccc(Cl)cc3)n3c(=O)n(-c4ccccc4)c(=O)n23)n(C)c1=O", "µM", ">", 100),
    ("CC(NC(C#N)CC12CC3CC(CC(C3)C1)C2)c1ccccc1 (stereo not given)", "µM", ">", 100),
    ("CC1(CC2=C(C(=O)NCCO[Si](C)(C)C(C)(C)C)C3(OCCO3)C2=O)OCCO1", "µM", ">", 100),
    ("COc1ccccc1/C=C/C(=O)/C=C/c1ccccc1OC", "µM", "=", 10.5),
    ("c1ccc2c(c1)CC1COc3ccccc3C1O2 (stereo not given)", "µM", ">", 100),
    ("O=C(COc1cccc(/C=C2\\CSc3ccccc3C2=O)c1)c1ccc(Cl)cc1", "µM", "=", 3.44),
    ("O=C(N/N=C\\c1ccccc1)Nc1cccc2ccccc12", "µM", "=", 77.1),
    ("CCN1CCC(O)(c2ccc(Oc3ccc(C)cc3)cc2)C(C(=O)c2ccc(Oc3ccc(C)cc3)cc2)C1 (stereo not given)", "µM", "=", 21.4),
    ("Oc1ccc(C#CCOc2ccccc2)cc1CNCCN(Cc1ccccn1)Cc1ccccn1", "µM", "=", 1.89),
    ("O=c1cc(N=Nc2ccc(Cl)cc2)[nH]c(=O)[nH]1", "µM", "=", 22.3),
    ("N#Cc1ccc2c(c1)C(=O)c1c-2n(CCCN)c(=O)c2cc([N+](=O)[O-])ccc12", "µM", "=", 1.49),
    ("Nc1ncnc2c1cnn2Cc1ccc(Cl)cc1", "µM", ">", 100),
    ("COc1ccc2c(c1)/C(=C/c1cc(OC)c(OC)c(OC)c1)C(=O)N2C", "µM", ">", 100),
    ("C=CCN(c1cc(OC)c2[nH]cc(C)c2c1[N+](=O)[O-])S(C)(=O)=O", "µM", ">", 100),
    ("O=C1C(NCCN2CCOCC2)=C(Cl)C(=O)c2ncccc21", "µM", "=", 2.77),
    ("N#CC1C2CCC3(CC2CCN1C(=O)c1ccccc1)OCCO3 (stereo not given)", "µM", ">", 100),
    ("COc1cc(OC)c(C(=O)/C=C/c2cccc(OC(C)=O)c2)cc1CC=C(C)C", "µM", ">", 50),
]

---

- Test system: HT29 colon
- methodSummary: NCI tumour cell line growth inhibition, 48 h
readout: log10 TGI (log10 of the value in µM)

# compound, log10 TGI
rows = [
    ("CC(=O)/C=C(\\O)c1[nH]c(C(=O)O)cc1C1CCN(Cc2ccccc2)C1=O (stereo not given)", 1.95),
    ("CNCCCNCCCN1C(=O)c2ccc3c4c(ccc(c24)C1=O)C(=O)N(CCCNCc1ccccc1OC)C3=O", 0.29),
    ("CC1(C)CC(Nc2ccc(Nc3ccccc3)cc2)CC(C)(C)N1", 1.71),
    ("NC1=Nc2cc(OCCCN3Cc4ccccc4C3)c(OCC3CC3)cc2C12CCCC2", 0.81),
    ("O=C(/C=C/c1ccccc1Cl)c1ccc(Cl)cc1Cl", 1.45),
    ("CCN(CC)CCCOc1cc2c(cc1OC)C(=O)N1CCC[C@H]1C=N2", 1.60),
]

---

- Tested on: UACC-62 melanoma
- methodSummary: NCI tumour cell line growth inhibition, 48 h; in the data active means GI50 below about 0.43 µM; inactive means the rest
Possible outcomes: active, inactive

# compound, label
records = [
    ("Oc1ccc(C#CCOc2ccccc2)cc1CNCCN(Cc1ccccn1)Cc1ccccn1", "inactive"),
    ("N#Cc1ccc2c(c1)C(=O)c1c-2n(CCCN)c(=O)c2cc([N+](=O)[O-])ccc12", "active"),
    ("CSc1ncnc2c1CCN2", "inactive"),
    ("O=C1CS/C(=N\\S(=O)(=O)c2ccc(N3N=C4c5ccccc5CC4C3c3ccc(Cl)cc3)cc2)N1c1ccccc1 (centres undefined)", "inactive"),
    ("C1COCCOCCOCCOCCO1.CC(=O)[CH-]C(C)=O.CC(=O)[CH-]C(C)=O.CC(=O)[CH-]C(C)=O.[V]", "inactive"),
    ("NC1=Nc2cc(OCCCN3Cc4ccccc4C3)c(OCC3CC3)cc2C12CCCC2", "inactive"),
    ("O=C(COc1cccc(/C=C2\\CSc3ccccc3C2=O)c1)c1ccc(Cl)cc1", "inactive"),
    ("COc1ccc2c(c1)/C(=C/c1cc(OC)c(OC)c(OC)c1)C(=O)N2C", "inactive"),
    ("CN(C)CCCn1c2nc(=O)[nH]c(=O)c-2nc2cc(Cl)c(Cl)cc21", "inactive"),
]

---

- System: MOLT-4 leukemia
- methodSummary: NCI tumour cell line growth inhibition, 48 h
# if value of TGI reaches 30 µM, tag Criterion met; if it stays below, tag Criterion not met

# compound, label
rows = [
    ("COc1cc2c(c(OC)c1OC)-c1ccc(OC)c(=O)cc1[C@@H](N(C)C=O)CC2", "Criterion met"),
    ("COc1ccccc1NC(=O)O/N=C(/Cl)C(C)C", "Criterion not met"),
    ("Cc1cc(N(CCCl)CCCl)ccc1/C=N/NC(=O)Cc1cc(=O)oc2cc(O)ccc12", "Criterion met"),
    ("CN1CCN(c2ccc(C(=O)Nc3cc(-c4cccc(NS(=O)(=O)c5ccccc5)c4)[nH]n3)cc2)CC1", "Criterion not met"),
    ("NC(=O)c1nnsc1NC=O", "Criterion met"),
    ("NC(CC1=CCC=CC1)C(=O)O (configuration not stated)", "Criterion met"),
    ("CC[C@@]12C=CC(=S)N(CCSc3ccccc3)[C@@H]1c1c(n(S(=O)(=O)c3ccc(OC)cc3)c3ccccc13)CC2", "Criterion met"),
    ("C=C1C(=O)OC2CC(C)C3C=CC(=O)C3CC12 (configuration not stated)", "Criterion not met"),
    ("Cc1c2c(cc3c(=O)ccn(CCN(C)C)c13)c(=O)ccn2CCN(C)C", "Criterion not met"),
    ("CCSc1nc(N)c2c(-c3ccccc3)c3c(nc2n1)CCC3", "Criterion met"),
    ("N#Cc1c(N)nc(N2CCOCC2)c(C#N)c1-c1ccccc1Cl", "Criterion met"),
    ("CC(Cc1ccccc1)NC1=NCCO1 (configuration not stated)", "Criterion met"),
    ("NC1(C(=O)O)CCCC1", "Criterion met"),
    ("COc1cc(Nc2nc3ccc(C(F)(F)F)cc3nc2-c2ccccc2)cc(OC)c1OC", "Criterion met"),
    ("O=[N+]([O-])c1ccc(Cl)cc1N/N=C/c1cccc2cccnc12", "Criterion met"),
    ("NC1=Nc2cc(OCCCN3Cc4ccccc4C3)c(OCC3CC3)cc2C12CCCC2", "Criterion not met"),
    ("CC(=O)Oc1ccc(/C=C/C(=O)O[C@H]2CCCC[C@@H]2OC(=O)/C=C/c2ccc(OC(C)=O)c(OC(C)=O)c2)cc1OC(C)=O", "Criterion met"),
    ("Oc1cccc(-c2cn3cc(C(F)(F)F)ccc3n2)c1", "Criterion met"),
    ("C/C(=N\\N=C(N)N)C(CN(C)C)C(c1ccccc1)c1c(O)c2ccccc2oc1=O (configuration not stated)", "Criterion met"),
    ("Cc1c(N=Cc2ccc(N(CCC#N)CCC#N)cc2)c(=O)n(-c2ccccc2)n1C", "Criterion met"),
    ("CCOC(=O)/C(=C\\c1ccc[nH]1)C(=O)c1ccccc1", "Criterion met"),
]
